Each recorded value in this set is attributed to patent US11339147B2.

Target: glutathione-S-transferase-labeled FXR human protein (Homo sapiens, UniProt Q96RI1)
Construct: purchased Invitrogen
Sequence (Q96RI1 whole entry): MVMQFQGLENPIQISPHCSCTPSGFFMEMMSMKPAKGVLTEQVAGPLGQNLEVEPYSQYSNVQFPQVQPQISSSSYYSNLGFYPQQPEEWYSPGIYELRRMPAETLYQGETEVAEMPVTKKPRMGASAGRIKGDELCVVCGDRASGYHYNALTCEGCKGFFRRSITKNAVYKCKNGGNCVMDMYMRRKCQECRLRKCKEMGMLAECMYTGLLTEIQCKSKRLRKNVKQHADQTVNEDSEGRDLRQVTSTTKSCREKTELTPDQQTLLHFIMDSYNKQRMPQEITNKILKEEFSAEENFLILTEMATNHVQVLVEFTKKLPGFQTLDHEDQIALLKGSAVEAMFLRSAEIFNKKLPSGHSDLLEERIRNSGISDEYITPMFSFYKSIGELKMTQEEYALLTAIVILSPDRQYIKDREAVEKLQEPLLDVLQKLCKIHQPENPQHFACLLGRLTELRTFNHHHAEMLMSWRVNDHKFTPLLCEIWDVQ
Test: FXR biochemical experiment (alphascreen, coactivator recruitment)
Conditions: highest signal relative to reference compound chenodeoxycholic acid (Examples 1-30); read-out: FXR enzyme activity Efficacy (activation efficacy percent)
From the text: FXR Biochemical Experiment To test the effect of the compound on the activation of the FXR binding reaction by a Homogenous Proximity Luminescent Amplified Assay (alphascreen). 1. Protein: glutathione-S-transferase-labeled FXR human protein (Invitrogen) 2. Coactivator: biotin-labeled steroid receptor coactivator (Anaspec) 3. […] 5. EC50 test: Envision was used to excite at 680 nm and the […] signal at 520-620 nm was read. […]
metric: Emax (%)

[P] O=C(O)c1ccc(CN2C(=O)C3(CC3)c3cc(OCc4c(-c5c(Cl)cccc5Cl)noc4C4CC4)ccc32)nc1
[Q] CC1(C)C(=O)N(Cc2cccc(C(=O)O)c2)c2ccc(OCc3c(-c4c(Cl)cccc4Cl)noc3C3CC3)cc21
Which has the higher Emax, P or Q ? // respond with label for picked entry P
(P: 200%, Q: 136%)
